Where do the numbers come from? From PubChem BioAssay.

test method notes: S. cerevisiae growth modulation with rapamycin, primary screen, strain BY4716, OD600, 96 h (AID 1091); note: test concentration not given here
conditions used: higher = more signal, called active from +8 up or from −8 down
readout name: z-score
Lab note: jot the number down without any unit.

INSERT INTO results (molecule, readout_name, assay_result) VALUES
  ('COC(=O)[C@@H]1CC[C@H](C)[C@@H](c2ccc(C)cc2)N1C(=O)c1ccc(C=NOC[C@H]2O[C@H](c3ccccc3)C=C[C@@H]2Oc2ccc(OC)cc2)cc1', 'z-score', 0.0902),
  ('C#CCCCON=C1C[C@@H](O)[C@@H](O)[C@@H]2[C@@H]3C(=O)N([C@@H](C)c4ccccc4)C(=O)[C@@H]3CC[C@@H]12', 'z-score', 1.26),
  ('CC(C)CON=C1C[C@@H](O)[C@@H](O)[C@@H]2[C@@H]3C(=O)N(Cc4ccc5c(c4)OCO5)C(=O)[C@@H]3CC[C@@H]12', 'z-score', -0.409),
  ('COC(=O)[C@H](C)NC(=O)CCC1CC(OC(=O)NCc2ccc3c(c2)OCO3)CC2(CCCC(COC(=O)NCCCN3CCCC3=O)O2)O1 (stereo partly specified)', 'z-score', 0.502),
  ('CC(CCN1CCc2nc(-c3ccccc3)c(-c3ccccc3)cc2C1)=NOC(C)CN1CCCc2nc(C)c(C)cc21 (stereo unspecified)', 'z-score', -3.45);

Item CC(C)=CCCC(C)=CCON=C1C[C@@H](O)[C@@H](O)[C@@H]2[C@@H]3C(=O)N(c4cccc(Oc5ccccc5)c4)C(=O)[C@@H]3CC[C@H]12 has what recorded z-score?
-0.407

----------
Items are presented alongside their recorded composite z-score.
assay system: Torsin-1A (Homo sapiens)
test method notes: torsin A binders from cell lysate, primary screen, small-molecule microarray, wild-type, 635/667 nm (AID 1149)
conditions used: COS7 hTOR1A-WT lysate, 635 nm fluorescence, higher = more signal
// keep it numeric: no unit symbol after the value

Worked set:
INSERT INTO measurements (molecule, assay_system, assay_result) VALUES
  ('CCc1cc2c(nc1CC)CCN(CCC(C)=NOC(C)CN1CCCCc3nc(C)c(C)cc31)C2 (centres undefined)', 'Torsin-1A (Homo sapiens)', 2.23),
  ('CCOC(=O)[C@H](Cc1ccccc1)NC(=O)CCC1CC(OC(=O)NCc2cccc3ccccc23)CC2(CCCC(COC(=O)NCCOc3ccccc3)O2)O1 (some centres undefined)', 'Torsin-1A (Homo sapiens)', 0.0468),
  ('C#CCCCON=C1C[C@@H](O)[C@@H](O)[C@@H]2[C@@H]3C(=O)N([C@@H](C)c4ccccc4)C(=O)[C@@H]3CC[C@@H]12', 'Torsin-1A (Homo sapiens)', -0.281);

Now consider a different molecule.
Suppose we examine the molecule CCCCOC(OCCCC)C(O)CSc1ccc2ccccc2c1 (centres undefined) ; what composite z-score value has been reported?
0.453

----------
test method notes: basal 3T3-L1 adipocyte mitochondrial potential changes, profiling panel, cell-based, JC-1 fluorescence, 3T3-L1 adipocytes, 24 h, 100 nL compound (AID 1168); note: test concentration not given here
conditions used: JC-1 mitochondrial fluorescence, higher = more signal, called active from +8 up or from −8 down
readout name: z-score
Lab note: jot the number down without any unit.

Below are worked cases with known answers.
INSERT INTO assay_data (molecule, assay_result) VALUES
  ('C=CC[C@@H]1C=C[C@H](ON=C[C@@H](NS(=O)(=O)c2ccc(C)cc2)[C@H](C)C=CCC(=O)OC)[C@@H](CO)O1', -0.959),
  ('COc1ccc(COC(=O)NN=C2C[C@@H](O)[C@@H](O)[C@@H]3[C@@H]4C(=O)N([C@@H](C)c5ccccc5)C(=O)[C@@H]4CC[C@@H]23)cc1', -0.132),
  ('COC(=O)[C@@H]1CC[C@H](C)[C@@H](c2ccc(C)cc2)N1C(=O)c1ccc(C=NOC[C@@H](O)[C@H]2O[C@@H]3OC(C)(C)O[C@@H]3[C@H]2O)cc1', -0.269),
  ('COC(=O)CC=C[C@@H](C)[C@@H](C=NOC[C@@H](C)[C@H](OCc1ccccc1)C(C)C)NS(=O)(=O)c1ccc(C)cc1', -2.09),
  ('CC(=O)OC[C@H]1O[C@H](CCON=C(C)CCN2CCCc3nc(C)c(C)cc32)C=C[C@@H]1OC(C)=O', -0.805),
  ('CC[C@@H](c1ccccc1)n1c(=O)n2n(c1=O)[C@H]1[C@H](O)[C@@H]3O[C@@H]3C(=NOCc3ccccc3)[C@H]1CC2', -0.327),
  ('COCOc1ccc(Br)cc1C(=O)C=Cc1ccc2c(c1)OCO2', 0.0274),
  ('C=CC[C@@H]1C=C[C@H](ON=C2C[C@@H](O)[C@@H](O)[C@@H]3[C@@H]4C(=O)N(CC)C(=O)[C@@H]4CC[C@@H]23)[C@@H](CO)O1', 0.265);

What z-score value was documented for this molecule, CCOC(=O)NN=C1C[C@@H](O)[C@@H](O)[C@@H]2[C@@H]3C(=O)N(C[C@@H]4CCCO4)C(=O)[C@@H]3CC[C@H]12 ?
-0.408

Would you mind doing CC(C)CN1CCc2nc(-c3ccccc3)c3c(c2C1)CO[C@@H](C)C3 as well?
0.0658

Similarly, COC(=O)CC=C1c2ccccc2[C@H](OC)[C@H]1C ?
-0.272

Please do the same for COC(=O)[C@@H]1CC[C@H](C)[C@@H](c2ccc(Br)cc2)N1 as well.
-0.644

Try the molecule CCOC(=O)[C@H](Cc1ccccc1)NC(=O)CCC1CC(OC(=O)NCc2ccc3c(c2)OCO3)CC2(CCCC(COC(=O)NCCCN3CCCC3=O)O2)O1 (some centres undefined)
-0.654

----------
test method notes: S. cerevisiae RM11-1a growth modifiers, primary screen, strain RM11-1a, OD600, basal, 24 h (AID 1177);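 note: cultures grown under basal conditions with no added stressor; test concentration not given here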
conditions used: OD600, 24 h, higher = more signal, called active from +8 up or from −8 down
Entries annotated with measured z-score
Give only the figure.

Example entries and their recorded answers appear below.
INSERT INTO assay_data (molecule, assay_result) VALUES
  ('O=C1[C@H]2[C@H]3[C@H](O)[C@H](O)CC(=NO[C@@H]4O[C@H](CO)[C@@H](O)[C@H](O)[C@H]4O)[C@@H]3CC[C@H]2C(=O)N1C1CCCCC1', 0.237),
  ('O=C(NN=C1C[C@@H](O)[C@@H](O)[C@@H]2[C@@H]3C(=O)N(c4ccc(F)cc4F)C(=O)[C@@H]3CC[C@H]12)OCc1ccccc1', -1.35),
  ('CC(=O)OC[C@H]1O[C@H](CC=NO[C@@H](C)c2cn([C@H](CO)Cc3ccccc3)nn2)C=C[C@@H]1OC(C)=O', -0.793),
  ('COC(=O)[C@H](C)NC(=O)CCC1CC(OC(=O)NCc2cccc3ccccc23)CC2(CCCC(COC(=O)NCCCN3CCCC3=O)O2)O1 (stereo not given in full)', 0.0627),
  ('O=C1C[C@@H](O)[C@@H](O)[C@@H]2[C@@H]3C(=O)N(C4CCCCC4)C(=O)[C@@H]3CC[C@@H]12', 0.356),
  ('O=C1[C@H]2[C@H]3[C@H](O)[C@H](O)CC(=NOC[C@@H](O)COCc4ccco4)[C@@H]3CC[C@H]2C(=O)N1Cc1ccc2c(c1)OCO2', 0.865);

Recorded z-score of CCOC(=O)[C@H](Cc1ccccc1)NC(=O)CCC1CC(OC(=O)NCCc2ccc(F)cc2)CC2(CCCC(COC(=O)NCCC(C)C)O2)O1 (stereo not given in full) , please.
1.05

Do the same for CC(CCN1CCc2nc(-c3ccccc3)c(-c3ccccc3)cc2C1)=NO[C@@H](C)c1cc(-c2c(C)cc(C)cc2C)no1 please
-0.482

And then Cc1ccc(C(C)C)n1C(=O)OC(C)(C)C , what is it?
-1.18

----------
Quick reference: composite z-score of the listed items.
assay system: Fibroblast growth factor 2 (Homo sapiens)
test method notes: FGF2 binders on small-molecule microarrays, primary screen, biochemical, small-molecule microarray, 635/667 nm fluorescence (AID 1133)
conditions used: small-molecule microarray binding, FGF2, fluorescence 635/667; higher = more signal

Param item = CC(=O)OC[C@H]1O[C@H](CC=NOC[C@@H](O)COCc2ccco2)C=C[C@@H]1OC(C)=O ; retrieve measured composite z-score.
1.54

Repeat with CCN1C(=O)[C@H]2[C@H]3[C@H](O)[C@H](O)CC(=NNC(=O)OCc4ccccc4)[C@@H]3CC[C@H]2C1=O
-0.0789

Now the same for O=C1[C@H]2[C@H]3[C@H](O)[C@H](O)CC(=NOC[C@@H](O)COCc4ccco4)[C@@H]3CC[C@H]2C(=O)N1Cc1ccc2c(c1)OCO2
1.56

----------
test method notes: PSAC antagonists in infected red cells, primary screen, cell-based, P. falciparum Indochina, OD700, 1 h (AID 1154)
conditions used: P. falciparum Indochina infected RBC osmotic lysis, higher = more signal, called active from +8 up or from −8 down
readout name: z-score
// return just the number, without any unit appended

INSERT INTO results (compound, readout_name, assay_result) VALUES
  ('CC(CCN1CCCc2nc(C)c(C)cc21)=NO[C@@H](C)c1cn([C@H](CO)Cc2ccccc2)nn1', 'z-score', 0.202),
  ('CCOC(=O)CCN1C(=O)[C@H]2[C@@H]3C(=CC[C@H]2C1=O)C(=O)[C@H]1O[C@H]1[C@H]3O', 'z-score', 3.05),
  ('C[C@@H]1CC[C@H]2C(=O)O[C@@H](COc3ccc(C(C)(C)C)cc3)CN2[C@H]1c1ccc(Br)cc1', 'z-score', 1.25);

Which value of z-score has been reported for C=CC[C@@H]1C=C[C@H](ON=CC[C@@H]2C=C[C@H](OC(C)=O)[C@@H](COC(C)=O)O2)[C@@H](CO)O1 in the records?
0.551

Do the same for CCCNC(=O)OC[C@H]1O[C@H](CCON=C2c3cc(OC)ccc3O[C@H](c3cccc(OC)c3)[C@H]2O)C=C[C@@H]1Oc1ccc(OC)cc1 please
3.13

Try this compound next: O=C1[C@H]2[C@H]3[C@H](O)[C@H](O)CC(=NO[C@@H]4O[C@H](CO)[C@@H](O)[C@H](O)[C@H]4O)[C@H]3CC[C@H]2C(=O)N1C[C@@H]1CCCO1
0.651

What do we get for CCOC(=O)[C@H](Cc1ccccc1)NC(=O)CCC1CC(OC(=O)NCc2cccc3ccccc23)CC2(CCCC(COC(=O)NCCc3ccccc3OC)O2)O1 (some centres not stated) ?
-0.623
